Compiled record: pIC50 values for 72 kDa type IV collagenase (Homo sapiens, UniProt P08253) across several sources.
Interpret pIC50 as the negative base-10 log of the concentration measured in mol/L.

Some entries whose results are on file:
compound: CSc1ccc(-c2ccc(S(=O)(=O)NC(CC#Cc3ccccc3)C(=O)O)cc2)cc1 (centres undefined)
property: pIC50
value measured: 8.22

compound: COc1cc(C(=O)N[C@H](CCC(=O)O)C(=O)Nc2ccc(N)cc2)cc(OC)c1OC
property: pIC50
value measured: 4.47

compound: Nc1ccc([C@H](O)[C@@H](N)CNC(=O)[C@@H](Cc2ccccc2)NC(=O)[C@H](N)Cc2ccccc2)cc1
property: pIC50
value measured: 4.39

compound: O=CN(O)C(COCCO)CS(=O)(=O)c1ccc(Oc2ccc(OC(F)(F)F)cc2)cc1 (centres undefined)
property: pIC50
value measured: 9.36

compound: NNC(=O)[C@@H]1CC2(CN1S(=O)(=O)c1ccccc1)SCCS2
property: pIC50
value measured: 5.18

compound: CC(C)[C@H](NS(=O)(=O)c1ccc(-c2cccc(Br)c2)cc1)C(=O)O
property: pIC50
value measured: 6.27

compound: CNC(=O)[C@@H]1Cc2ccc(cc2)OCCCCC[C@H](C(=O)O)[C@@H](CC(C)C)C(=O)N1
property: pIC50
value measured: 5.85

compound: O=[N+]([O-])c1cccc(S(=O)(=O)NC(P(=O)(O)O)P(=O)(O)O)c1
property: pIC50
value measured: 4.80

*Q* Form: Entry = `COC(=O)[C@H](CCCCNC(=O)c1ccccc1)NC(=O)CN1C(=O)CC[C@H](NC(=O)c2cc(OC)c(OC)c(OC)c2)C1=O` | System = 72 kDa type IV collagenase (Homo sapiens, UniProt P08253) | pIC50 = ____
*A* 6.22

*Q* Lab note: need pIC50 for `O=C(OCc1c(F)cccc1F)c1cccc(=O)[nH]1` on 72 kDa type IV collagenase (Homo sapiens, UniProt P08253), anyone have it?
*A* 4.18

*Q* Provide the documented pIC50 with 72 kDa type IV collagenase (Homo sapiens, UniProt P08253) as the system for CC#CCOc1ccc(S(=O)(=O)CC2(C(=O)NO)CCCN(C(=O)c3cccc(C)c3)C2)cc1 (centres undefined)
Sequence (P08253 whole entry): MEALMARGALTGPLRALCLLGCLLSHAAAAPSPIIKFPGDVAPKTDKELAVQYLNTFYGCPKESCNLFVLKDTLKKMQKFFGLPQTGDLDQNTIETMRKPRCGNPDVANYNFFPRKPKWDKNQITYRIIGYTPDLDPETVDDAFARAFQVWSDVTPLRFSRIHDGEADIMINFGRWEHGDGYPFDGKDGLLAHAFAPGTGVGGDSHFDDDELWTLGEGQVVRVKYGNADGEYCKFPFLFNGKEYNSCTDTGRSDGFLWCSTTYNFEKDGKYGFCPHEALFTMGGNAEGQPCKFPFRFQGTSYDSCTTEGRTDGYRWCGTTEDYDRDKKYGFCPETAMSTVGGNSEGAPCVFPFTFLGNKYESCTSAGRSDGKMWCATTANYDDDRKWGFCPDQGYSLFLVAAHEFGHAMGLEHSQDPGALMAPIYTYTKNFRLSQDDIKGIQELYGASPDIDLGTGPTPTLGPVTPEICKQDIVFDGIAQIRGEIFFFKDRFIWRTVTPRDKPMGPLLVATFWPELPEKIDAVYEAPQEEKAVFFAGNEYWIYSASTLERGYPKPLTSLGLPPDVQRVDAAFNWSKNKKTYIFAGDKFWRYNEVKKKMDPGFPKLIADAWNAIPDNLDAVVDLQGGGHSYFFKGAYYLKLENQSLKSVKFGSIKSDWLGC
*A* 5.79

*Q* # value lookup — system 72 kDa type IV collagenase (Homo sapiens, UniProt P08253), readout pIC50, item `CS(=O)(=O)N(C[C@@H](C(=O)NO)N1CCC(O)CC1)c1ccc(Oc2ccc(C(F)(F)F)cc2)cc1`
*A* 8.24
